# Inhibition of CD69 expression, IC50 per entry
# STUDY TARGET: human CD1a expressed on cells (human, UniProt P06126 17-327)
# Sequence (P06126 17-327): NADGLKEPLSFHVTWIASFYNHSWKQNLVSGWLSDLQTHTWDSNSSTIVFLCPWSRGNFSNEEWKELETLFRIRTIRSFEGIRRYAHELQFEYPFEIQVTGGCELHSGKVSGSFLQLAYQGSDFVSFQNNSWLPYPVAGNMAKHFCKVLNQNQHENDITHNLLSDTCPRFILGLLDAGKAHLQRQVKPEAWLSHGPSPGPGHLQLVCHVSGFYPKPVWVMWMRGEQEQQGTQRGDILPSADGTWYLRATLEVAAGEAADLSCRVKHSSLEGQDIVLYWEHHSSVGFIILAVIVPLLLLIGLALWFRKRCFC
# ASSAY PROTOCOL: cell-based or functional assay

[
  {
    "BINDER": "Ab138 (antibody, human IgG1, kappa, V domains shown, Humanized variant of chimeric Ab40; human IgG1 (L234A/L235A/G237A, effector function null) / human kappa; heavy chain can be prepared with or without the terminal lysine; Tb-labeled in the HTRF assay; also called humanized anti-CD1a antibody Ab138; parental Ab138) VH: EVQLVESGGGLVQPGGSLRLSCAASGFTFTDFYMNWVRQAPGKGLEWVAFIRNKANGYTTESNPSVKGRFTISRDNAKNSLYLQMNSLRAEDTAVYYCARETTGIPTGWFAYWGQGTLVTVSS VL: DIQMTQSPSSLSASVGDRVTITCLASEDISNDLAWYQQKPGKAPKLLIYGANRLKDGVPSRFSGSGSGTDYTLTISSLQPEDFATYYCQQSYKYPYTFGQGTKLEIKR",
    "Inhibition of CD69 expression, IC50": "1970 pM"
  },
  {
    "BINDER": "Ab681 (antibody, human IgG1, kappa, V domains shown, Optimized variant of Ab138; human IgG1 effector null / kappa; HC with or without terminal lysine) VH: EVQLVESGGGLVQPGGSLRLSCAASGFTFTDHYMHWVRQAPGKGLEWVAHTRDKAGGYTTESNPAVKGRFTISRDNAKNSLYLQMNSLRAEDTAVYYCARETTRIPTGWFAYWGQGTLVTVSS VL: DIQMTQSPSSLSASVGDRVTITCLASEDIYFDLAWYQQKPGKAPKLLIYGGDRLQEGVPSRFSGSGSGTDYTLTISSLQPEDFATYYCQQSESYPYTFGQGTKLEIKR",
    "Inhibition of CD69 expression, IC50": "420 pM"
  },
  {
    "BINDER": "Ab610 (antibody, human IgG1, kappa, V domains shown, Optimized variant of Ab138; human IgG1 effector null / kappa; HC with or without terminal lysine) VH: EVQLVESGGGLVQPGGSLRLSCAASGFDFTDHYMHWVRQAPGKGLEWVAHTRDKAGGYTTESNPAVKGRFTISRDNAKNSLYLQMNSLRAEDTAVYYCARETTRIPTGWFAYWGQGTLVTVSS VL: DIQMTQSPSSLSASVGDRVTITCLASEDIYFDLAWYQQKPGKAPKLLIYGGDRLKEGVPSRFSGSGSGTDYTLTISSLQPEDFATYYCQQSESYPYTFGQGTKLEIKR",
    "Inhibition of CD69 expression, IC50": "440 pM"
  },
  {
    "BINDER": "Ab599 (antibody, human IgG1, kappa, V domains shown, Optimized variant of Ab138; human IgG1 effector null / kappa; HC with or without terminal lysine) VH: EVQLVESGGGLVQPGGSLRLSCAASGFTFTDHYMHWVRQAPGKGLEWVGHISGSAGGYTTESNPAVKGRFTISRDNAKNSLYLQMNSLRAEDTAVYYCARETTRIPTGWFAYWGQGTLVTVSS VL: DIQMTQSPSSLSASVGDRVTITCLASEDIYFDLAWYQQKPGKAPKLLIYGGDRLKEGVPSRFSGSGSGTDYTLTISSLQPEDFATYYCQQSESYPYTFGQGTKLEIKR",
    "Inhibition of CD69 expression, IC50": "300 pM"
  },
  {
    "BINDER": "Ab504 (antibody, human IgG1, kappa, V domains shown, Optimized variant of Ab138; human IgG1 effector null / kappa; HC with or without terminal lysine) VH: EVQLVESGGGLVQPGGSLRLSCAASGFTFTDHYMHWVRQAPGKGLEWVAFIRNKAGGYTTESNPAVKGRFTISRDNAKNSLYLQMNSLRAEDTAVYYCARETTGIPTGWFAYWGQGTLVTVSS VL: DIQMTQSPSSLSASVGDRVTITCLASEDIYFDLAWYQQKPGKAPKLLIYGGDRLKDGVPSRFSGSGSGTDYTLTISSLQPEDFATYYCQQSESYPYTFGQGTKLEIKR",
    "Inhibition of CD69 expression, IC50": "1690 pM"
  }
]
